- Tested on: Mycobacterium tuberculosis Erdman (autoluminescent)
- procedure-details: Einf, fitted maximum growth inhibition of three-drug combination (fraction); higher = stronger maximal inhibition
- recorded-conditions: in vitro model: cholesterol 0.05 mM; time point: constant (~7 days, model-specific)
metric-name: Einf
Respond using a number only.

COc1nc2ccc(Br)cc2cc1[C@@H](c1ccccc1)[C@@](O)(CCN(C)C)c1cccc2ccccc12 [bedaquiline] + CC(=O)NC[C@H]1CN(c2ccc(N3CCOCC3)c(F)c2)C(=O)O1 [linezolid] + CO[C@H]1/C=C/O[C@@]2(C)Oc3c(C)c(O)c4c(O)c(c(/C=N/N5CCN(C)CC5)c(O)c4c3C2=O)NC(=O)/C(C)=C\C=C\[C@H](C)[C@H](O)[C@@H](C)[C@@H](O)[C@@H](C)[C@H](OC(C)=O)[C@@H]1C [rifampicin]    0.744

As a next step, examine the compound that follows.
Exercise: What value of Einf has been recorded for this entry: CC[C@@H](CO)NCCN[C@@H](CC)CO [ethambutol] + CC(=O)NC[C@H]1CN(c2ccc(N3CCOCC3)c(F)c2)C(=O)O1 [linezolid] + NC(=O)c1cnccn1 [pyrazinamide]
Key: 0.785

* * *

Some compounds, each annotated with its measured AUC25.
- System: Mycobacterium tuberculosis Erdman (autoluminescent)
- procedure-details: AUC25, normalised area under dose response up to IC25 (three-drug combination) (fraction (0-1)); higher = more potent at low dose
- recorded-conditions: in vitro model: acidic pH 5.7; time point: constant (~7 days, model-specific)
// print number alone

Consider the following illustrative entries.
CC(=O)NC[C@H]1CN(c2ccc(N3CCOCC3)c(F)c2)C(=O)O1 [linezolid] + O=[N+]([O-])c1cn2c(n1)OC[C@@H](OCc1ccc(OC(F)(F)F)cc1)C2 [pretomanid] + NC(=O)c1cnccn1 [pyrazinamide]    0.0949
CC[C@@H](CO)NCCN[C@@H](CC)CO [ethambutol] + NNC(=O)c1ccncc1 [isoniazid] + O=[N+]([O-])c1cn2c(n1)OC[C@@H](OCc1ccc(OC(F)(F)F)cc1)C2 [pretomanid]    0.121
CC(C)/N=c1\cc2n(-c3ccc(Cl)cc3)c3ccccc3nc-2cc1Nc1ccc(Cl)cc1 [clofazimine] + NC(=O)c1cnccn1 [pyrazinamide] + CO[C@H]1/C=C/O[C@@]2(C)Oc3c(C)c(O)c4c(O)c(c(/C=N/N5CCN(C)CC5)c(O)c4c3C2=O)NC(=O)/C(C)=C\C=C\[C@H](C)[C@H](O)[C@@H](C)[C@@H](O)[C@@H](C)[C@H](OC(C)=O)[C@@H]1C [rifampicin]    0.0832

Exercise: What AUC25 value was documented for this compound, COc1nc2ccc(Br)cc2cc1[C@@H](c1ccccc1)[C@@](O)(CCN(C)C)c1cccc2ccccc12 [bedaquiline] + CC[C@@H](CO)NCCN[C@@H](CC)CO [ethambutol] + COc1c(N2C[C@@H]3CCCN[C@@H]3C2)c(F)cc2c(=O)c(C(=O)O)cn(C3CC3)c12 [moxifloxacin] ?
Key: 0.0871

* * *

- Tested on: Mycobacterium tuberculosis Erdman (autoluminescent)
- procedure-details: total FIC90 (Loewe) at 90% inhibition, three-drug combination (log2); higher = more antagonistic
- recorded-conditions: in vitro model: dormancy (butyrate + nitrate, low O2); time point: constant (~7 days, model-specific)
Entry flag: TRUE if total FIC90 reaches -0.4; FALSE if it does not.

CC(=O)NC[C@H]1CN(c2ccc(N3CCOCC3)c(F)c2)C(=O)O1 [linezolid] + O=[N+]([O-])c1cn2c(n1)OC[C@@H](OCc1ccc(OC(F)(F)F)cc1)C2 [pretomanid] + NC(=O)c1cnccn1 [pyrazinamide]    TRUE
CC(C)/N=c1\cc2n(-c3ccc(Cl)cc3)c3ccccc3nc-2cc1Nc1ccc(Cl)cc1 [clofazimine] + COc1c(N2C[C@@H]3CCCN[C@@H]3C2)c(F)cc2c(=O)c(C(=O)O)cn(C3CC3)c12 [moxifloxacin] + NC(=O)c1cnccn1 [pyrazinamide]    FALSE
COc1nc2ccc(Br)cc2cc1[C@@H](c1ccccc1)[C@@](O)(CCN(C)C)c1cccc2ccccc12 [bedaquiline] + COc1c(N2C[C@@H]3CCCN[C@@H]3C2)c(F)cc2c(=O)c(C(=O)O)cn(C3CC3)c12 [moxifloxacin] + O=[N+]([O-])c1cn2c(n1)OC[C@@H](OCc1ccc(OC(F)(F)F)cc1)C2 [pretomanid]    FALSE

Exercise: Tell me whether total FIC90 is at least -0.4 here: COc1nc2ccc(Br)cc2cc1[C@@H](c1ccccc1)[C@@](O)(CCN(C)C)c1cccc2ccccc12 [bedaquiline] + O=[N+]([O-])c1cn2c(n1)OC[C@@H](OCc1ccc(OC(F)(F)F)cc1)C2 [pretomanid] + CO[C@H]1/C=C/O[C@@]2(C)Oc3c(C)c(O)c4c(O)c(c(/C=N/N5CCN(C)CC5)c(O)c4c3C2=O)NC(=O)/C(C)=C\C=C\[C@H](C)[C@H](O)[C@@H](C)[C@@H](O)[C@@H](C)[C@H](OC(C)=O)[C@@H]1C [rifampicin]
Key: FALSE

Exercise: Item NNC(=O)c1ccncc1 [isoniazid] + CO[C@H]1/C=C/O[C@@]2(C)Oc3c(C)c(O)c4c(O)c(c(/C=N/N5CCN(C6CCCC6)CC5)c(O)c4c3C2=O)NC(=O)/C(C)=C\C=C\[C@H](C)[C@H](O)[C@@H](C)[C@@H](O)[C@@H](C)[C@H](OC(C)=O)[C@@H]1C [rifapentine] + CO[C@H]1/C=C/O[C@@]2(C)Oc3c(C)c(O)c4c(O)c(c(/C=N/N5CCN(C)CC5)c(O)c4c3C2=O)NC(=O)/C(C)=C\C=C\[C@H](C)[C@H](O)[C@@H](C)[C@@H](O)[C@@H](C)[C@H](OC(C)=O)[C@@H]1C [rifampicin] with total FIC90 of -0.4 or above?
Key: FALSE

Exercise: Could you verify whether the entry NNC(=O)c1ccncc1 [isoniazid] + CC(=O)NC[C@H]1CN(c2ccc(N3CCOCC3)c(F)c2)C(=O)O1 [linezolid] + CO[C@H]1/C=C/O[C@@]2(C)Oc3c(C)c(O)c4c(O)c(c(/C=N/N5CCN(C)CC5)c(O)c4c3C2=O)NC(=O)/C(C)=C\C=C\[C@H](C)[C@H](O)[C@@H](C)[C@@H](O)[C@@H](C)[C@H](OC(C)=O)[C@@H]1C [rifampicin] shows total FIC90 of no less than -0.4?
Key: TRUE

Exercise: Evaluate CC(C)/N=c1\cc2n(-c3ccc(Cl)cc3)c3ccccc3nc-2cc1Nc1ccc(Cl)cc1 [clofazimine] + NNC(=O)c1ccncc1 [isoniazid] + O=[N+]([O-])c1cn2c(n1)OC[C@@H](OCc1ccc(OC(F)(F)F)cc1)C2 [pretomanid] : total FIC90 at minimum -0.4?
Key: FALSE

Exercise: In plain terms: is recorded total FIC90 at least -0.4 for CC(=O)NC[C@H]1CN(c2ccc(N3CCOCC3)c(F)c2)C(=O)O1 [linezolid] + NC(=O)c1cnccn1 [pyrazinamide] + CO[C@H]1/C=C/O[C@@]2(C)Oc3c(C)c(O)c4c(O)c(c(/C=N/N5CCN(C)CC5)c(O)c4c3C2=O)NC(=O)/C(C)=C\C=C\[C@H](C)[C@H](O)[C@@H](C)[C@@H](O)[C@@H](C)[C@H](OC(C)=O)[C@@H]1C [rifampicin] ?
Key: TRUE

Exercise: Check the entry NNC(=O)c1ccncc1 [isoniazid] + O=[N+]([O-])c1cn2c(n1)OC[C@@H](OCc1ccc(OC(F)(F)F)cc1)C2 [pretomanid] + CO[C@H]1/C=C/O[C@@]2(C)Oc3c(C)c(O)c4c(O)c(c(/C=N/N5CCN(C6CCCC6)CC5)c(O)c4c3C2=O)NC(=O)/C(C)=C\C=C\[C@H](C)[C@H](O)[C@@H](C)[C@@H](O)[C@@H](C)[C@H](OC(C)=O)[C@@H]1C [rifapentine] : does total FIC90 equal or exceed -0.4?
Key: TRUE
